- TEST_PROTOCOL: ATG_DR4_LXR_CIS: Attagene CIS-FACTORIAL HepG2 Assay for human Liver X Receptor (LXR), DR4 submotif (AID 2282929)
- EXPERIMENTAL_CONDITIONS: HepG2 Attagene DR4 cis-reporter, mRNA transcription; actives raise or lower the signal
Active and inactive are the calls of the source. Rule for the calls: active = hit-call score of the fitted dose curve at least 0.9, where 1 is the maximum; inactive = score below 0.9.
Possible outcomes: True for active, False for inactive

{"COMPOUND": "CC=CC(=O)C1=C(C)C=CCC1(C)C", "ASSIGNED_CATEGORY": "False"}
{"COMPOUND": "CCCCCCCOC(C)=O", "ASSIGNED_CATEGORY": "False"}
{"COMPOUND": "CN1CCc2cccc3c2[C@H]1Cc1ccc(O)c(O)c1-3", "ASSIGNED_CATEGORY": "True"}
{"COMPOUND": "CC(O)COCC(C)O (configuration not stated)", "ASSIGNED_CATEGORY": "False"}
{"COMPOUND": "CC(=O)CCc1ccc(O)cc1", "ASSIGNED_CATEGORY": "False"}
{"COMPOUND": "CC(O)CNCC(C)O (configuration not stated)", "ASSIGNED_CATEGORY": "False"}
{"COMPOUND": "CCCCCCCCCCOC(=O)c1ccccc1C(=O)OCCCCCCCC", "ASSIGNED_CATEGORY": "False"}
{"COMPOUND": "CCCCCCCCCCO[C@@H]1O[C@H](CO)[C@@H](O)[C@H](O)[C@H]1O", "ASSIGNED_CATEGORY": "True"}
{"COMPOUND": "CCOC(=O)C(=O)OCC", "ASSIGNED_CATEGORY": "False"}
{"COMPOUND": "Nc1ccc(N)c([N+](=O)[O-])c1", "ASSIGNED_CATEGORY": "False"}
{"COMPOUND": "CCCC[N+](C)(CCCC)CCCC", "ASSIGNED_CATEGORY": "False"}
{"COMPOUND": "CC(C)=CCCC(C)=CC(=O)O", "ASSIGNED_CATEGORY": "False"}
{"COMPOUND": "CCCCCC1C(=O)CCC1CC(=O)OC (configuration not stated)", "ASSIGNED_CATEGORY": "False"}
{"COMPOUND": "CC1(C)[C@H](C=C(Cl)Cl)[C@H]1C(=O)OCc1cccc(Oc2ccccc2)c1", "ASSIGNED_CATEGORY": "False"}
{"COMPOUND": "CCCCN(CCCC)CCCCCCN(CCCC)CCCC", "ASSIGNED_CATEGORY": "False"}
{"COMPOUND": "CC(=O)Nc1cc(S(=O)(=O)O)cc2cc(S(=O)(=O)O)c(N=Nc3ccccc3)c(O)c12", "ASSIGNED_CATEGORY": "False"}
{"COMPOUND": "COc1ccc(N)c(C)c1", "ASSIGNED_CATEGORY": "False"}
{"COMPOUND": "CC(O)CN (configuration not stated)", "ASSIGNED_CATEGORY": "False"}
{"COMPOUND": "CCc1cccc(O)c1", "ASSIGNED_CATEGORY": "False"}
{"COMPOUND": "CCCCCCCCCCCCCCCCCC(=O)OCCCCCCCCCCCCCC(C)C", "ASSIGNED_CATEGORY": "False"}
{"COMPOUND": "C=C(C)C(=O)OCCC[Si](OC)(OC)OC", "ASSIGNED_CATEGORY": "False"}
{"COMPOUND": "C/C=C(\\C)C(=O)OC/C=C(\\C)CCC=C(C)C", "ASSIGNED_CATEGORY": "False"}
{"COMPOUND": "CC(C)(O)C(=O)c1ccc(OCCO)cc1", "ASSIGNED_CATEGORY": "False"}
{"COMPOUND": "CCOC(=O)COC(=O)c1ccccc1C(=O)OCC", "ASSIGNED_CATEGORY": "False"}
{"COMPOUND": "N#CCCNCCC#N", "ASSIGNED_CATEGORY": "False"}
{"COMPOUND": "Cc1cccc(O)c1", "ASSIGNED_CATEGORY": "False"}
{"COMPOUND": "CC1=CC(C)C(C=O)C(C)C1 (configuration not stated) (tested in a mixture with another compound)", "ASSIGNED_CATEGORY": "False"}
{"COMPOUND": "CCCc1ccc(O)cc1", "ASSIGNED_CATEGORY": "True"}
{"COMPOUND": "CC(C)(C)c1cccc(O)c1", "ASSIGNED_CATEGORY": "False"}
{"COMPOUND": "C=C1CC[C@H]2O[C@]2(C)CC[C@@H]2[C@@H]1CC2(C)C", "ASSIGNED_CATEGORY": "False"}
{"COMPOUND": "CC/C=C\\C#N", "ASSIGNED_CATEGORY": "False"}
{"COMPOUND": "CC(=O)OC(C)(C)C", "ASSIGNED_CATEGORY": "False"}
{"COMPOUND": "COc1ccc(OC)cc1", "ASSIGNED_CATEGORY": "False"}
{"COMPOUND": "Cc1cc(O)c2c(c1)C(=O)c1cc(O)cc(O)c1C2=O", "ASSIGNED_CATEGORY": "True"}
{"COMPOUND": "CCCO[Si](OCCC)(OCCC)OCCC", "ASSIGNED_CATEGORY": "False"}
{"COMPOUND": "CCCO", "ASSIGNED_CATEGORY": "False"}
{"COMPOUND": "CCCCOCCOCCO", "ASSIGNED_CATEGORY": "False"}
{"COMPOUND": "CCO[Si](CCC#N)(OCC)OCC", "ASSIGNED_CATEGORY": "False"}
{"COMPOUND": "CCCCCCC(O)CCOC(C)=O (configuration not stated)", "ASSIGNED_CATEGORY": "False"}
{"COMPOUND": "CCC(C)(C)C1CCC(=O)CC1", "ASSIGNED_CATEGORY": "False"}
{"COMPOUND": "c1ccc(OCCOc2ccccc2)cc1", "ASSIGNED_CATEGORY": "False"}
{"COMPOUND": "CCOC(=O)CCCCCCCCC(=O)OCC", "ASSIGNED_CATEGORY": "False"}
{"COMPOUND": "CCCCCCCCCCCCS", "ASSIGNED_CATEGORY": "True"}
{"COMPOUND": "CCCCCCCCCCCCOCCOS(=O)(=O)O", "ASSIGNED_CATEGORY": "False"}
{"COMPOUND": "CCCCCc1cccc(=O)o1", "ASSIGNED_CATEGORY": "False"}
{"COMPOUND": "CCn1cc(C(=O)O)c(=O)c2ccc(C)nc21", "ASSIGNED_CATEGORY": "False"}
{"COMPOUND": "CC(C)COC(=O)c1ccccc1", "ASSIGNED_CATEGORY": "False"}
{"COMPOUND": "C1COCO1", "ASSIGNED_CATEGORY": "False"}
{"COMPOUND": "CCCCCCOc1ccc(O)cc1", "ASSIGNED_CATEGORY": "True"}
{"COMPOUND": "CN(C)C", "ASSIGNED_CATEGORY": "False"}
{"COMPOUND": "CCCC(O)C(CC)CO (configuration not stated)", "ASSIGNED_CATEGORY": "False"}
{"COMPOUND": "c1coc(CNc2ncnc3nc[nH]c23)c1", "ASSIGNED_CATEGORY": "False"}
{"COMPOUND": "CCOC(=O)CC1(C)OCC(C)O1 (configuration not stated)", "ASSIGNED_CATEGORY": "False"}
{"COMPOUND": "COc1cc(OC)c2ccc(=O)oc2c1", "ASSIGNED_CATEGORY": "True"}
{"COMPOUND": "FC(F)(F)c1ccc(Cl)c(Cl)c1", "ASSIGNED_CATEGORY": "False"}
{"COMPOUND": "CCC(CC)CO", "ASSIGNED_CATEGORY": "False"}
{"COMPOUND": "Nc1ccn([C@H]2CC[C@@H](CO)O2)c(=O)n1", "ASSIGNED_CATEGORY": "False"}
{"COMPOUND": "CC(=O)OCC=C(C)CCC=C(C)CCC=C(C)C", "ASSIGNED_CATEGORY": "True"}
{"COMPOUND": "CCCCCC1CCC(=O)O1 (configuration not stated)", "ASSIGNED_CATEGORY": "False"}
{"COMPOUND": "CC(C)Cc1ccc(C(C)C(=O)O)cc1 (configuration not stated)", "ASSIGNED_CATEGORY": "False"}
{"COMPOUND": "CC1=CC[C@@H](C(C)(C)O)CC1", "ASSIGNED_CATEGORY": "False"}
{"COMPOUND": "[Cl][Dy]([Cl])[Cl]", "ASSIGNED_CATEGORY": "False"}
